pIC50 values by entry
# Tested on: HepG2 (hepatocellular cancer) cells
# Assay Text: MTT assay, HepG2 cells
# Format: cell-based, human
# Condition Details: MTT assay, 48 h incubation; read-out: IC50 (mean ± SD), HepG2, MTT
pIC50 here: minus log base 10 of the concentration, concentration in moles per litre.

The cases that follow already have their pIC50 on record.
> print(dat)
                                   compound  measured.attribute  measured.value
1  O=C(CCc1nc(-c2ccccc2)c(-c2ccccc2)o1)[O][Sn]([c]1ccccc1)([c]1ccccc1)[c]1ccccc1               pIC50            6.84
2  O=C(CCN1C(=O)NC(c2ccccc2)(c2ccccc2)C1=O)[O][Sn]([c]1ccccc1)([c]1ccccc1)[c]1ccccc1               pIC50            7.00

# next compound below
[Q] Quick check: pIC50 of N.N.[Cl][Pt][Cl] [cisplatin, reference compound] ?
[A] 5.46

The reported measurements were obtained from paper PMC8198038.
